molecular target: MAST1, Q9Y2H9; test: holdup assay; parameters: key: below the threshold = too weak to quantify, mostly under pKd 3.1 to 4; settings: plain residues with an end cap or a label only (N-terminal biotin on a linker: ttds)
Sequence (Q9Y2H9 962-1065): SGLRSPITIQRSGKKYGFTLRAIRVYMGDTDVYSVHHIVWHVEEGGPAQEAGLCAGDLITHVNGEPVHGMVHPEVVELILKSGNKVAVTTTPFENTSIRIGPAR
observed_property: pKd
In your answer, state the number alone without any accompanying words.

Q: Please give the measured pKd for this binder: PSRDRKETSI [RALBP1, Q15311]
Result: 4.56

Q: Please give the measured pKd for this binder: PPRQRSETQV [HPV82-E6, Q9IR59]
Result: 4.41

Q: Please give the measured pKd for this binder: KQVVPFSSSV [GDA, Q9Y2T3]
Result: 4.04

Q: Please give the measured pKd for this binder: SRSRRRETAL [HPV33-E6, P06427]
Result: 4.78

Q: Please give the measured pKd for this binder: SHSSKGETAV [FZD7, O75084]
Result: 4.77

Q: Please give the measured pKd for this binder: FVETQHQTQV [FAT3, Q8TDW7]
Result: 4.8

Q: Please give the measured pKd for this binder: DLDEEEDTHL [PODXL, O00592]
Result: 4.19
